Assay: qHTS Assay to Find Inhibitors of Chronic Active B-Cell Receptor Signaling: Hit Validation in Primary Screen; note: nearly all actives have a fitted effect of over 75% in size
Conditions: ABC-DLBCL IkB-luc/CBR ratio luminescence, 4 h; series mostly up to 46.1 µM
Out of some 1,200 compounds screened, about 480 (40%) were called active. About 29% were inconclusive and are not listed. Calls come from the whole dose curve; as a rule, active = well fitted inhibition curve with a large enough effect; inconclusive = small, poorly fitted or top-dose-only effect; inactive = no such curve, though single readings can be large or run the other way. The list shows a part of the results.
Hello, when you answer, please use one of the following outcomes: Yes for active, No for inactive

Completed entries (count: 2):
compound	category_label
CCNC(=S)N/N=C(\C)c1ccc(Cl)s1	No
CCN(CC(=O)NCc1ccc(F)cc1)C(=O)/C=C/c1ccc(OC)c(S(=O)(=O)NC(C)C)c1	Yes

GET /call?item= COc1cc2c(cc1OC)-c1cc(Nc3ccccc3C)nc(=O)n1CC2 returns the recorded outcome of this test.
No

For COc1ccc2c(c1)C(C)=CC(C)(C)N2S(=O)(=O)c1ccc(Br)cc1 then?
Yes

Cited source: PubChem BioAssay AID651558
